Data credit: patent US8623859B2

Molecular target: human B1 (Homo sapiens, UniProt P46663)
Assay: Calcium flux assay for Bradykinin B1 antagonist, CHO-K1 cell line expressing human B1
Details: CHO-K1 cells expressing human B1, agonist Lys-(Des-Arg)-Bradykinin, read-out: Potency (IC50 value against human B1)
Counter-ions that a name gives are not always drawn.
quantity: IC50

Answered cases to consult:
COc1cc(C)c(S(=O)(=O)N(Cc2nc(C(=O)N3CCN(CC4CCCN(C)C4)CC3)co2)C2CC2)c(C)c1 (centres unmarked) [Ex 192, trifluoroacetate]: < 10 nM
CN(Cc1ccc(C2=NCCN2)cc1)C(=O)c1coc(CN(C)S(=O)(=O)c2c(Cl)cccc2Cl)c1: < 10 nM
COc1cc(C)c(S(=O)(=O)N(C)Cc2noc(C(=O)NCCc3ccc(C4=NCCN4)cc3)n2)c(C)c1: < 10 nM
COc1cc(C)c(S(=O)(=O)N(C)Cc2nc(C(=O)N(C)Cc3ccc(CN4CCC(OC)C4)cc3)co2)c(C)c1 (centres unmarked): < 10 nM
COc1cc(C)c(S(=O)(=O)N(C)Cc2noc(C(=O)N(C)Cc3ccc(CN4CCCC4)cc3)n2)c(C)c1: < 10 nM

Exercise: So what IC50 did COc1cc(C)c(S(=O)(=O)N(C)Cc2nnc(C(=O)N3CCN(CCCN4CCCC4)CC3)o2)c(C)c1 get with human B1 (Homo sapiens, UniProt P46663)?
Key: 10 to 100 nM

Exercise: Moving on to the next compound: COc1cc(C)c(S(=O)(=O)N(Cc2cc(C(=O)N3CCC(CCN4CCCC4)CC3)co2)C2CC2)c(C)c1 [Ex 120, trifluoroacetate]
Key: < 10 nM

Exercise: # repeat for COc1cc(C)c(S(=O)(=O)N(C)Cc2nc(C(=O)N(C)Cc3ccc(CN4CCC(N(C)C)C4)cc3)co2)c(C)c1 (centres unmarked)
Key: 10 to 100 nM

Exercise: Same question for CCN(Cc1cc(C(=O)NCCc2ccc(C3=NCCN3)cc2)co1)S(=O)(=O)c1c(Cl)cccc1Cl [Ex 122, trifluoroacetate] please.
Key: 100 to 1000 nM

Exercise: Repeat for the following compound: COc1cc(C)c(S(=O)(=O)N(C)Cc2nnc(C(=O)N3CCC(CCN4CCCC4)CC3)o2)c(C)c1
Key: 10 to 100 nM

Exercise: Item: COc1cc(C)c(S(=O)(=O)N(Cc2noc(C(=O)N3CCN(CC4CCN(C)CC4)CC3)n2)C2CC2)c(C)c1
Key: < 10 nM

Exercise: Thanks! And COc1cc(C)c(S(=O)(=O)N(Cc2noc(C(=O)N(C)Cc3nc(CN4CCCC4)cs3)n2)C2CC2)c(C)c1 [Ex 307, trifluoroacetate] ?
Key: 10 to 100 nM

Exercise: Now try COc1cc(C)c(S(=O)(=O)N(Cc2nc(C(=O)NCc3ccc(CN4CCCC4)cc3)co2)C2CC2)c(C)c1 .
Key: < 10 nM

Exercise: Same for COc1cc(C)c(S(=O)(=O)N(Cc2nc(C(=O)N3CCC(O)(/C=C/c4ccncc4)CC3)co2)C2CC2)c(C)c1 [Ex 241, trifluoroacetate]
Key: 10 to 100 nM

* * *

Molecular target: human B1 (Homo sapiens, UniProt P46663)
Assay: Calcium flux assay for Bradykinin B1 antagonist, CHO-K1 cell line expressing human B1
Conditions: CHO-K1 cells expressing human B1, agonist Lys-(Des-Arg)-Bradykinin, read-out: Potency (IC50 value against human B1)
pIC50: −log10 of the molar value. Where a name gives a salt, the structure may show the parent alone.
quantity: pIC50

COc1cc(C)c(S(=O)(=O)N(C)Cc2cc(C(=O)NCc3ccc(CN4CCC4)cc3)co2)c(C)c1 [Ex 97, trifluoroacetate]: 7.00 to 8.00

Exercise: Tell me the measured pIC50 of CN(CCc1ccc(C2=NCCN2)cc1)C(=O)c1coc(CN(C2CC2)S(=O)(=O)c2c(Cl)cc(Cl)cc2Cl)n1 [Ex 215, trifluoroacetate] , please.
Key: 7.00 to 8.00

Exercise: Can you check COc1cc(C)c(S(=O)(=O)N(C)Cc2nc(C(=O)N(C)Cc3ccc(CN4CCC(C(=O)N(C)C)C4)cc3)co2)c(C)c1 (stereo not shown) [Ex 171] next?
Key: > 8.00

Exercise: // query: COc1cc(C)c(S(=O)(=O)N(C)Cc2nnc(C(=O)N(C)Cc3ccc(CN4CCC(N(C)C)C4)cc3)o2)c(C)c1 (stereo not shown) [Ex 285]
Key: 6.00 to 7.00

Exercise: Also COc1cc(C)c(S(=O)(=O)N(Cc2noc(C(=O)N3CCN(CCN4CCCC4)CC3)n2)C2CC2)c(C)c1 [Ex 318] ?
Key: 7.00 to 8.00

Exercise: Queued: COc1cc(C)c(S(=O)(=O)N(Cc2nc(C(=O)N3CCN(CCCN(C)C)CC3)co2)C2CC2)c(C)c1 [Ex 196, trifluoroacetate]
Key: > 8.00

Exercise: Can you check COc1cc(C)c(S(=O)(=O)N(Cc2nc(C(=O)N(C)Cc3ccc(CN4CCC(OC)C4)cc3)co2)C2CC2)c(C)c1 (stereo not shown) [Ex 182] next?
Key: > 8.00

* * *

Target: human B1 (Homo sapiens)
Sequence (P46663 1-353): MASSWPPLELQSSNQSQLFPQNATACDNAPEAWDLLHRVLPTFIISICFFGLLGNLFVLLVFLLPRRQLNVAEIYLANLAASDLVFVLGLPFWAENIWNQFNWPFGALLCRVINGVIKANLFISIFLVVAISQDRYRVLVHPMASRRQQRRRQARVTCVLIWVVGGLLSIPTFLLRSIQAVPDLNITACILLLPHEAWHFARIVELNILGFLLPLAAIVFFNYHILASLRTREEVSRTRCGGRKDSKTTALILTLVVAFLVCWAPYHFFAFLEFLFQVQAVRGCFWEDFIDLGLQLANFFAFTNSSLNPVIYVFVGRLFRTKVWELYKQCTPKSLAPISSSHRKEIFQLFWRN
Assay: Calcium flux assay for Bradykinin B1 antagonist, CHO-K1 cell line expressing human B1
Settings: CHO-K1 cells expressing human B1, agonist Lys-(Des-Arg)-Bradykinin, read-out: Potency (IC50 value against human B1)
pIC50: −log10 of the molar value. Counter-ions that a name gives are not always drawn.
Catalogue of pIC50 readings, one per entry.

Examples with their reported pIC50 follow.
COc1cc(C)c(S(=O)(=O)N(C)Cc2cc(C(=O)N(C)Cc3ccc(C(C)N4CCCC4)cc3)co2)c(C)c1 (stereo not shown) [Ex 88, trifluoroacetate]: 6.00 to 7.00
COc1cc(C)c(S(=O)(=O)N(C)Cc2cc(C(=O)NCCc3ccc(Nc4nccc(N)n4)cc3)co2)c(C)c1 [Ex 44]: 6.00 to 7.00
COc1cc(C)c(S(=O)(=O)N(C)Cc2cc(C(=O)N(C)Cc3ccc(CN4CCC(O)C4)cc3)co2)c(C)c1 (stereo not shown) [Ex 135]: 7.00 to 8.00

# next molecule below
Exercise: Param item = COc1cc(C)c(S(=O)(=O)N(C)Cc2cc(C(=O)NCc3ccc(Nc4nccc(N)n4)cc3)co2)c(C)c1 [Ex 14] ; retrieve measured pIC50.
Key: 6.00 to 7.00

* * *

Molecular target: UniProt P46663
Sequence (P46663 1-353): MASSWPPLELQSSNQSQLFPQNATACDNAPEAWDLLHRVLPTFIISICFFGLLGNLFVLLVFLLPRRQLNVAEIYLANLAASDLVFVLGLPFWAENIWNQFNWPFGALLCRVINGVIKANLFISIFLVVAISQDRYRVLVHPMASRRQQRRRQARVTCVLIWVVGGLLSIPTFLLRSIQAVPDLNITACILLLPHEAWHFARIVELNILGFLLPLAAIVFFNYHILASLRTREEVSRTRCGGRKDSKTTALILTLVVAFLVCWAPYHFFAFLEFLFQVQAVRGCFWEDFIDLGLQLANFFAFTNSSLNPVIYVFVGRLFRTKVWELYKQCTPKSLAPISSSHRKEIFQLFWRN
Assay: Calcium flux assay for Bradykinin B1 antagonist, CHO-K1 cell line expressing human B1
Details: CHO-K1 cells expressing human B1, agonist Lys-(Des-Arg)-Bradykinin, read-out: Potency (IC50 value against human B1)
Counter-ions that a name gives are not always drawn.
quantity: IC50

The following compounds have reported results that may help.
COc1cc(C)c(S(=O)(=O)N(C)Cc2cc(C(=O)NC3CC(C)(C)N(C)C(C)(C)C3)co2)c(C)c1: 100 to 1000 nM
COc1cc(C)c(S(=O)(=O)N(C)Cc2cc(C(=O)N(C)Cc3ccc(CN4CCC(OC)C4)cc3)co2)c(C)c1 (stereo not shown): 100 to 1000 nM
COc1cc(C)c(S(=O)(=O)N(C)Cc2nnc(C(=O)N3CCN(Cc4cccnc4N)CC3)o2)c(C)c1: < 10 nM
COc1cc(C)c(S(=O)(=O)N(C)Cc2nc(C(=O)N(C)CCc3ccc(C4=NCCN4)cc3)cs2)c(C)c1: 100 to 1000 nM
COc1cc(C)c(S(=O)(=O)N(C)Cc2cc(C(=O)NCCc3ccc(C4=NCC(C)(C)N4)cc3)co2)c(C)c1 [Ex 94, trifluoroacetate]: < 10 nM
COc1cc(C)c(S(=O)(=O)N(Cc2cc(C(=O)N(C)Cc3ccc(CN4CCCC(OC)C4)cc3)co2)C2CC2)c(C)c1 (stereo not shown): 100 to 1000 nM

Exercise: Look up IC50: COc1cc(C)c(S(=O)(=O)N(Cc2cc(C(=O)N3CCCN(CCCN4CCCC4)CC3)co2)C2CC2)c(C)c1 [Ex 116, trifluoroacetate]
Key: 10 to 100 nM
